For each entry below, report its Ki value.
Biological target: bovine trypsin (Bos taurus, UniProt P00760)
Sequence (P00760 24-246): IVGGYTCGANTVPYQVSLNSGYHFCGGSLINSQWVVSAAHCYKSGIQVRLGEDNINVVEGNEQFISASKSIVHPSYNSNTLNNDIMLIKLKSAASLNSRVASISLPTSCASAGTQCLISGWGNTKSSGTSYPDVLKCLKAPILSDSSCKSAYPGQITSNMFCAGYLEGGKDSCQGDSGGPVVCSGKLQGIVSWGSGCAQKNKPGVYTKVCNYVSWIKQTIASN
Test: Trypsin inhibitory activity of peptides (BApNA hydrolysis, OD405; IC50, Ki, residual activity)
Assay type: biochemical
Settings: Ki=IC50/(1+S/Km), Km 0.33 mM; read-out: Ki
Bridge positions count the residues as written; N and C are the ends. Square brackets hold non-standard residues; d marks the D form. Peptide text beside a SMILES is read from it. Hyp = O=C(O)[C@@H]1C[C@@H](O)CN1
The reply should contain only the number, in nM.

Ask: Fill in the blank: the reported Ki of CC[C@H](C)[C@@H]1NC(=O)[C@@H]2CCCN2C(=O)[C@@H]2CCCN2C(=O)[C@H]([C@@H](C)CC)NC(=O)[C@H](CO)NC(=O)[C@H](CCCCN)NC(=O)[C@H]([C@@H](C)O)NC(=O)[C@H](CO)NC(=O)[C@H](CCCNC(=N)N)NC(=O)CNC(=O)[C@@H](N)CSSC[C@@H](C(=O)N[C@@H](Cc2ccccc2)C(=O)O)NC1=O [BT47] (H-CGRSTKSIPPICF-OH; disulfide 1-12; C-terminus assumed) is ____.
Result: 10

Ask: Name the recorded Ki for CC[C@H](C)[C@@H]1NC(=O)[C@H](CCCNC(=N)N)NC(=O)CNC(=O)[C@@H](N)CSSC[C@@H](C(=O)N[C@@H](Cc2ccccc2)C(=O)O)NC(=O)[C@H]([C@@H](C)CC)NC(=O)[C@@H]2CCCN2C(=O)[C@@H]2CCCN2C(=O)[C@H]([C@@H](C)CC)NC(=O)[C@H](CO)NC(=O)[C@H](CCCCN)NC(=O)[C@H]([C@@H](C)O)NC1=O [BT49] (H-CGRITKSIPPICF-OH; disulfide 1-12; C-terminus assumed) .
Result: 110

Ask: // query Ki value for entry CC[C@H](C)[C@@H]1NC(=O)[C@@H]2C[C@@H](O)CN2C(=O)[C@@H]2CCCN2C(=O)[C@H]([C@@H](C)CC)NC(=O)[C@H](CO)NC(=O)[C@H](CCCCN)NC(=O)[C@H]([C@@H](C)O)NC(=O)[C@H](C)NC(=O)[C@H](CCCNC(=N)N)NC(=O)[C@H](C)NC(=O)[C@@H](N)CSSC[C@@H](C(=O)N[C@@H](Cc2ccccc2)C(=O)O)NC1=O [BT70] (H-CARATKSIP[Hyp]ICF-OH; disulfide 1-12; C-terminus assumed)
Result: 30
